Assay: Inhibition of TNF-alpha-induced VCAM1 expression in HPAECs
Type: functional, Homo sapiens
pIC50: −log10 of the molar value.
Readout Kind: pIC50

Observe how each entry below is paired with its result.
[[record]]
compound_smiles = "COc1ccc(-c2cccs2)cc1/C=C/C(=O)c1ccc(C(=O)O)cc1"
observed_measurement = 5.51

[[record]]
compound_smiles = "COc1cc(OC)c(-c2cc3ccccc3s2)cc1/C=C/C(=O)c1ccc(C(=O)NC(=O)C(C)C)cc1"
observed_measurement = 5.77

[[record]]
compound_smiles = "COCCOCCOCCOc1cc(OC)c(-c2cccs2)cc1/C=C/C(=O)c1ccc(C(=O)O)cc1"
observed_measurement = 5.40

[[record]]
compound_smiles = "COc1cc(OC)c(-c2cc3ccccc3s2)cc1/C=C/C(=O)c1ccc(C(=O)NC(C)=O)cc1"
observed_measurement = 6.10

[[record]]
compound_smiles = "COc1cc(OC)c(-c2cc3ccccc3s2)cc1/C=C/C(=O)c1ccc(C(N)=O)cc1"
observed_measurement = 6.70


P = COc1cc(OC)c(-c2cccs2)cc1/C=C/C(=O)c1ccccc1C(=O)O
Q = COc1cc(OC)c(-c2cccs2)cc1/C=C/C(=O)c1cccc(C(=O)O)c1
R = COc1cc(OC)c(-c2cc3ccccc3o2)cc1/C=C/C(=O)c1ccc(C(=O)O)cc1
S = COc1cc(OC)c(-c2ccc(C)s2)cc1/C=C/C(=O)c1ccc(C(=O)O)cc1
Sort low-to-high on pIC50, please. Reply format: the labels, ordered as requested. P, Q, S, R

I = COCCOCCOc1cc(OC)c(/C=C/C(=O)c2ccc(C(=O)O)cc2)cc1-c1cccs1
II = COc1cc(OC)c(-c2cc3ccccc3n2C(=O)OC(C)(C)C)cc1/C=C/C(=O)c1ccc(C(=O)O)cc1
Higher pIC50: I or II ? State your choice using its label. II
(II: 5.92, I: 5.19)

I = COc1cc(OC)c(-c2cc3ccccc3s2)cc1/C=C/C(=O)c1ccc(C(=O)NCCN2CCOCC2)cc1
II = COCCOCCOc1cc(OC)c(-c2cccs2)cc1/C=C/C(=O)c1ccc(C(=O)O)cc1
Lab log: flag the item ( I or II ) with the smaller pIC50 figure. Answer with the label corresponding to your selection. II

1 = CCc1cc(/C=C/C(=O)c2ccc(C(=O)O)cc2)c(OC)cc1OC
2 = CONC(=O)c1ccc(C(=O)/C=C/c2cc(-c3cc4ccccc4s3)c(OC)cc2OC)cc1
Compare 1 and 2 by numeric pIC50 and name the larger one. // caller expects the label of the chosen entry 2
